Test system: Enterococcus faecium
Assay: Antibacterial activity against chlorguanide triazine-resistant Streptococcus faecium ATCC 8043 assessed as reduction in growth
Assay type: functional, organism-based
pIC50: −log10 of the molar value.
parameter: pIC50

• Cc1ccccc1-c1nc2c(N)nc(N)nc2nc1N = 3.91
• Cc1nc(C)c(Cl)c(O)c1Cl = 2.66
• CCN(CC)CCCC(C)Nc1ccnc2cc(Cl)ccc12 (stereo not given) = 2.12
• Nc1nc(N)c2cc(NCc3ccc(Cl)c(Cl)c3)ccc2n1 = 5.70
• Nc1ncc(Cc2ccc3c(c2)OCO3)c(N)n1 = 4.62
• Nc1nc(N)c2cc(S(=O)(=O)c3ccc4ccccc4c3)ccc2n1 = 7.10
• O=C1C(O)=C(CCCCCCCCC2CCCCC2)C(=O)c2ccccc21 = 3.40
• C/C(=C\C(=N\NC(=N)N)c1ccccc1)c1ccccc1 = 4.22
• N=C(N)N/N=C(\c1ccc(F)cc1)c1ccc(C(F)(F)F)cc1 = 4.46
• CCCCN(CCCC)CC(O)c1cc(-c2ccc(Cl)c(Cl)c2)nc2c(Cl)cc(Cl)cc12 (stereo not given) = 3.24
• Nc1nc(=O)c2c([nH]1)NCC(CCNc1ccc(C(=O)[O-])cc1)N2.[Na+] (stereo not given) = 5.14
• COc1cc(Cc2cnc(N)nc2N)cc(OC)c1OC = 5.92
• N=C(N)NC(=O)Nc1ccc([N+](=O)[O-])cc1 = 2.60
• CC1(C)N=C(N)N=C(N)N1c1ccc(Cl)cc1 = 2.48
• Nc1nc(N)c2cc(Oc3cc(Cl)cc(Cl)c3)ccc2n1 = 5.89
• CCc1nc(N)nc(N)c1-c1ccc(Cl)cc1 = 4.98
• CC(CNc1nc(Nc2ccc(Cl)c(Cl)c2)nc(C(Cl)(Cl)Cl)n1)N(C)C (stereo not given) = 4.84
• CC(C)c1nc2nc(N)nc(N)c2nc1C(C)C = 6.52
• CN(Cc1cnc2nc(N)nc(N)c2n1)c1ccc(C(=O)N[C@@H](CCC(=O)O)C(=O)O)cc1 [METHOTREXATE] = 8.00
• Nc1nc(N)c2cc(SCc3ccc(Cl)cc3)ccc2n1 = 6.00
• CCN(CC)CCNc1nc(C(Cl)(Cl)Cl)nc2cc(Cl)ccc12 = 4.17
• CN1CCCCC1CNc1nc(-c2ccc(Cl)c(Cl)c2)nc(C(Cl)(Cl)Cl)n1 (stereo not given) = 3.89
• ClC(Cl)(Cl)c1ccc(C(Cl)(Cl)Cl)cc1 = 2.72
• Nc1nc(N)c2c(ccc3cc(Br)ccc32)n1 = 6.15
• Clc1ccc(Nc2nc(NCCCN3CCCC3)c3ccccc3n2)cc1Cl = 4.66
• Nc1nc(N)c2cc(Sc3ccc(Cl)cc3)ccc2n1 = 6.74
• COc1cc(NC(C)CCCN)c2ncccc2c1 (stereo not given) = 2.52
• CCN1CCCC(Nc2cc(C)nc(NC(=N)Nc3ccc(Cl)c(Cl)c3)n2)C1 (stereo not given) = 3.92
• CCN(CC)CCNc1nc(Nc2ccc(Cl)c(Cl)c2)nc2ccccc12 = 4.21
• CC1(C)N=C(N)N=C(N)N1OCCCOc1cc(Cl)c(Cl)cc1Cl = 7.72
• CC1(C)N=C(N)N=C(N)N1OCc1ccc(Cl)c(Cl)c1 = 5.47

Data provenance is ChEMBL document CHEMBL3272032.
